Would you mind telling me the reported pIC50 of each entry?
Molecular target: Sodium/hydrogen exchanger 3 (Homo sapiens, UniProt P48764)
Sequence (P48764 whole entry): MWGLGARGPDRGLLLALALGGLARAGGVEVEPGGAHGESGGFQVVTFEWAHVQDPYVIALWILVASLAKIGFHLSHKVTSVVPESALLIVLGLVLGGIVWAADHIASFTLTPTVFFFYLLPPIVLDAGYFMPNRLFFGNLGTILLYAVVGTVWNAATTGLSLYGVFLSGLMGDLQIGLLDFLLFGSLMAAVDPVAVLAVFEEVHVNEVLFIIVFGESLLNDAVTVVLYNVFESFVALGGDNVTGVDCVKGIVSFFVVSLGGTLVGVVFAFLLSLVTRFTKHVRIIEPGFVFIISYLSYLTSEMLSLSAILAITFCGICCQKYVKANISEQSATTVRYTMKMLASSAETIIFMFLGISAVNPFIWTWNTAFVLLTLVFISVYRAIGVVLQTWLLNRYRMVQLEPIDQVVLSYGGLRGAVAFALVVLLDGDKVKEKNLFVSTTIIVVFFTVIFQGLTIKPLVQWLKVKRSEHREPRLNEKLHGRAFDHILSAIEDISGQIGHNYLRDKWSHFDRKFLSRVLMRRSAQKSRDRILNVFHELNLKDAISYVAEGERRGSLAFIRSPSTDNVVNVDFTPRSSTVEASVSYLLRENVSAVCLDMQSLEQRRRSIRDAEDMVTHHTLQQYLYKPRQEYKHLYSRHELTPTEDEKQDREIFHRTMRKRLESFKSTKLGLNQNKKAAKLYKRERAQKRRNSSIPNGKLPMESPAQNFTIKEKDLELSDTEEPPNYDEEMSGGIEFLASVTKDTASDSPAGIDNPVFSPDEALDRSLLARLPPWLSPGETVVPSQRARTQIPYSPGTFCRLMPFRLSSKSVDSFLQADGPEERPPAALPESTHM
Assay: Cell-Based Assay of NHE-3 Activity (Persistent Inhibition): The ability of compounds to inhibit human and rat NHE-3-mediated Na+ dependent H+ antiport after application and washout was measured using a modification of the pH sensitive dye method described above. PS120 fibroblasts stably expressing human NHE3 and NHERF2 were obtained from Mark Donowitz (Baltimore, Md.). Opossum kidney (OK) cells were obtained from the ATCC and propagated per their instructions. The rat NHE-3 gene was introduced into OK cells via electroporation, and cells were seeded into 96 well plates and grown overnight. Medium was aspirated from the wells, cells were washed once with NaCl-HEPES buffer (100 mM NaCl, 50 mM HEPES, 10 mM glucose, 5 mM KCl, 2 mM CaCl2, 1 mM MgCl2, pH 7.4), then overlayed with NaCl-HEPES buffer containing 0-30 μM test compound. After a 60 min incubation at room temperature, the test drug containing buffer was aspirated from the cells. Following aspiration, cells were washed once with NaCl-HEPES buffer without drug, then incubated for 30 min at 37° C. with NH4Cl-HEPES buffer (20 mM NH4Cl, 80 mM NaCl, 50 mM HEPES, 5 mM KCl, 2 mM CaCl2, 1 mM MgCl2, pH 7.4) containing 5 μM BCECF-AM. Cells were washed once with Ammonium free, Na+-free HEPES (100 mM choline, 50 mM HEPES, 10 mM glucose, 5 mM KCl, 2 mM CaCl2, 1 mM MgCl2, pH 7.4) and incubated in the same buffer for 10 minutes at room temperature to lower intracellular pH. NHE-3-mediated recovery of neutral intracellular pH was initiated ([…]) by addition of Na-HEPES buffer. […] Changes in intracellular pH were monitored using a FLIPR Tetra® (Molecular Devices, Sunnyvale, Calif.) by excitation at λex 439 to 505 nm, and measuring BCECF fluorescence at λem 538 nm. The initial rate of the fluorescence ratio change was used as a measure of NHE-mediated Na+/H+ activity, and reported as the change in fluorescence ratio per minute.
pIC50: −log10 of the molar value.

- given_smiles: "Cc1cc(Cl)cc2c1C[C@H](N1CCC[C@@H](N)C1)[C@H]2Oc1ccc(S(=O)(=O)NCCOCCOCCNC(=O)NCCCCNC(=O)NCCOCCOCCNS(=O)(=O)c2ccc(O[C@H]3c4cc(Cl)cc(C)c4C[C@@H]3N3CCC[C@@H](N)C3)cc2)cc1"
  reported_property: "pIC50"
  result: "> 7.00"

// next entry
Q: What value of pIC50 has been reported for the following molecule? "Cc1cc(S(=O)(=O)N[C@@H]2CCN(CCOCCNC(=O)NCCCCNC(=O)NCCOCCN3CC[C@@H](NS(=O)(=O)c4ccc(O[C@H]5c6cc(Cl)cc(C#N)c6C[C@@H]5N(C)C)c(C)c4)C3)C2)ccc1O[C@H]1c2cc(Cl)cc(C#N)c2C[C@@H]1N(C)C"
A: > 7.00

---

Would you mind telling me the reported pIC50 of each entry?
Molecular target: Sodium/hydrogen exchanger 3 (Homo sapiens)
Experiment: Cell-Based Assay of NHE-3 Activity (Pre-Incubation Inhibition): Rat and human NHE-3-mediated Na+-dependent H+ antiport was measured using a modification of the pH sensitive dye method originally reported by Paradiso (Proc. Natl. Acad. Sci. USA. (1984) 81(23): 7436-7440). PS120 fibroblasts stably expressing human NHE3 and NHERF2 were obtained from Mark Donowitz (Baltimore, Md.). Opossum kidney (OK) cells were obtained from the ATCC and propagated per their instructions. The rat NHE-3 gene (GenBank M85300) was introduced into OK cells via electroporation, and cells were seeded into 96 well plates and grown overnight. Medium was aspirated from the wells then incubated for 30 min at 37° C. with NH4Cl-HEPES buffer (20 mM NH4Cl, 80 mM NaCl, 50 mM HEPES, 5 mM KCl, 2 mM CaCl2, 1 mM MgCl2, pH 7.4) containing 5 μM BCECF-AM. Cells were washed once with Ammonium free, Na+-free HEPES (100 mM choline, 50 mM HEPES, 10 mM glucose, 5 mM KCl, 2 mM CaCl2, 1 mM MgCl2, pH 7.4) and incubated in the same buffer for 10 minutes at room temperature to lower intracellular pH with 0-30 μM test compound. […] Changes in intracellular pH were monitored using a FLIPR Tetra® (Molecular Devices, Sunnyvale, Calif.) by excitation at λex 439 to 505 nm, and measuring BCECF fluorescence at λem 538 nm. The initial rate of the fluorescence ratio change was used as a measure of NHE-mediated Na+/H+ activity, and reported as the change in fluorescence ratio per minute.
pIC50: −log10 of the molar value.

- given_smiles: "Cc1cc(S(=O)(=O)NCCCCCCCCNC(=O)NCCCCNC(=O)NCCCCCCCCNS(=O)(=O)c2ccc(O[C@H]3c4cc(Cl)cc(Cl)c4C[C@@H]3N(C)C)c(C)c2)ccc1O[C@H]1c2cc(Cl)cc(Cl)c2C[C@@H]1N(C)C"
  system: "Sodium/hydrogen exchanger 3 (Homo sapiens)"
  pIC50: "< 6.00"

Please supply pIC50 for each of the following items, keeping them in order.
1. Cc1cc(Cl)cc2c1C[C@H](N1CCNCC1)[C@H]2Oc1ccc(S(=O)(=O)NCCOCCOCCNC(=O)NCCCCNC(=O)NCCOCCOCCNS(=O)(=O)c2ccc(O[C@H]3c4cc(Cl)cc(C)c4C[C@@H]3N3CCNCC3)cc2)cc1
2. Cc1cc(S(=O)(=O)N2CC[C@@H](COCCOCCNC(=O)NCCCCNC(=O)NCCOCCOC[C@@H]3CCN(S(=O)(=O)c4ccc(O[C@H]5c6cc(Cl)cc(C#N)c6C[C@@H]5N(C)C)c(C)c4)C3)C2)ccc1O[C@H]1c2cc(Cl)cc(C#N)c2C[C@@H]1N(C)C
3. N#Cc1cc(Cl)cc2c1C[C@H](N1CCC[C@@H](N)C1)[C@H]2Oc1ccc(S(=O)(=O)NCCOCCOCCNC(=O)NCCCCNC(=O)NCCOCCOCCNS(=O)(=O)c2ccc(O[C@H]3c4cc(Cl)cc(C#N)c4C[C@@H]3N3CCC[C@@H](N)C3)cc2)cc1

A:
["> 7.00", "> 7.00", "> 7.00"]

---

Biological target: Sodium/hydrogen exchanger 3 (Homo sapiens, UniProt P48764)
Assay: Cell-Based Assay of NHE-3 Activity (Persistent Inhibition): The ability of compounds to inhibit human and rat NHE-3-mediated Na+ dependent H+ antiport after application and washout was measured using a modification of the pH sensitive dye method described above. PS120 fibroblasts stably expressing human NHE3 and NHERF2 were obtained from Mark Donowitz (Baltimore, Md.). Opossum kidney (OK) cells were obtained from the ATCC and propagated per their instructions. The rat NHE-3 gene was introduced into OK cells via electroporation, and cells were seeded into 96 well plates and grown overnight. Medium was aspirated from the wells, cells were washed once with NaCl-HEPES buffer (100 mM NaCl, 50 mM HEPES, 10 mM glucose, 5 mM KCl, 2 mM CaCl2, 1 mM MgCl2, pH 7.4), then overlayed with NaCl-HEPES buffer containing 0-30 μM test compound. After a 60 min incubation at room temperature, the test drug containing buffer was aspirated from the cells. Following aspiration, cells were washed once with NaCl-HEPES buffer without drug, then incubated for 30 min at 37° C. with NH4Cl-HEPES buffer (20 mM NH4Cl, 80 mM NaCl, 50 mM HEPES, 5 mM KCl, 2 mM CaCl2, 1 mM MgCl2, pH 7.4) containing 5 μM BCECF-AM. Cells were washed once with Ammonium free, Na+-free HEPES (100 mM choline, 50 mM HEPES, 10 mM glucose, 5 mM KCl, 2 mM CaCl2, 1 mM MgCl2, pH 7.4) and incubated in the same buffer for 10 minutes at room temperature to lower intracellular pH. NHE-3-mediated recovery of neutral intracellular pH was initiated ([…]) by addition of Na-HEPES buffer. […] Changes in intracellular pH were monitored using a FLIPR Tetra® (Molecular Devices, Sunnyvale, Calif.) by excitation at λex 439 to 505 nm, and measuring BCECF fluorescence at λem 538 nm. The initial rate of the fluorescence ratio change was used as a measure of NHE-mediated Na+/H+ activity, and reported as the change in fluorescence ratio per minute.
pIC50: −log10 of the molar value.
Would you mind telling me the reported pIC50 of each entry?

- given_smiles: "Cc1cc(S(=O)(=O)NCCCCCCCCNC(=O)NCCCCNC(=O)NCCCCCCCCNS(=O)(=O)c2ccc(O[C@H]3c4cc(Cl)cc(Cl)c4C[C@@H]3N(C)C)c(C)c2)ccc1O[C@H]1c2cc(Cl)cc(Cl)c2C[C@@H]1N(C)C"
  result: "< 6.00"

Q: What value of pIC50 has been reported for the following compound? "Cc1cc(O[C@H]2c3cc(Cl)cc(Cl)c3C[C@@H]2N2CCC[C@@H](N)C2)c(F)cc1S(=O)(=O)NCCOCCOCCNC(=O)NCCCCNC(=O)NCCOCCOCCNS(=O)(=O)c1cc(F)c(O[C@H]2c3cc(Cl)cc(Cl)c3C[C@@H]2N2CCC[C@@H](N)C2)cc1C"
A: > 7.00
